targetUnderTest: UniProt:P41587
Sequence (P41587 whole entry): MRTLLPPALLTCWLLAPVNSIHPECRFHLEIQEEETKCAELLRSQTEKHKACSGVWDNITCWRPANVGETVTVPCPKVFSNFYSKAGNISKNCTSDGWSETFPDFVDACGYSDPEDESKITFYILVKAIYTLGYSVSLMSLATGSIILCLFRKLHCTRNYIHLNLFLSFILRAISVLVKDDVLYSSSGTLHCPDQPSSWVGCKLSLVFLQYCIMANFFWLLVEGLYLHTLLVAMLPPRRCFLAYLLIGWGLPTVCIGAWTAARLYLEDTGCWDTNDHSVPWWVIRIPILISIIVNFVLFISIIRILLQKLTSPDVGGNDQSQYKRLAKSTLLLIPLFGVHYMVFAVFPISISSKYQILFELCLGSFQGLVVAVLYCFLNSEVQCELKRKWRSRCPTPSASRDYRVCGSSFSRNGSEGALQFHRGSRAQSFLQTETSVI
procedureText: Antagonist activity at recombinant human N-terminal signal peptide/FLAG epitope-tagged VIPR2 expressed in HEK293 cells co-expressing CAMYEL assessed as inhibition of VIP-induced cAMP accumulation at 5 uM preincubated for 5 mins with luciferin, coelenterazine H followed by VIP addition measured after 5 mins by BRET assay relative to control
Type: functional, cell-based
parameter: inhibition (%)

givenSmiles: CNC(=O)c1ccc(S(=O)(=O)NC[C@@H](O)C[C@@H](Cc2ccccc2)C(=O)N[C@H]2c3ccccc3C[C@H]2O)cc1
parameter: inhibition
displayUnit: %
readoutNumber: 69.5
--
givenSmiles: CC(=O)Nc1ccc(S(=O)(=O)NC[C@@H](O)C[C@@H](Cc2ccccc2)C(=O)N[C@H]2c3ccccc3C[C@H]2O)cc1
parameter: inhibition
displayUnit: %
readoutNumber: 19.1
--
givenSmiles: O=C(NN1CCCCC1)[C@H](Cc1ccccc1)C[C@H](O)CNS(=O)(=O)c1ccc([N+](=O)[O-])cc1
parameter: inhibition
displayUnit: %
readoutNumber: 4.4
--
givenSmiles: COc1ccc(S(=O)(=O)NC[C@@H](O)C[C@@H](Cc2ccccc2)C(=O)N[C@H]2c3ccccc3C[C@H]2O)cc1OC
parameter: inhibition
displayUnit: %
readoutNumber: 28.2
--
givenSmiles: O=C(Cc1cccc(Cl)c1)NC[C@@H](O)C[C@@H](Cc1ccccc1)C(=O)N[C@H]1c2ccccc2C[C@H]1O
parameter: inhibition
displayUnit: %
readoutNumber: 26.5
--
givenSmiles: O=C(NC[C@@H](O)C[C@@H](Cc1ccccc1)C(=O)N[C@H]1c2ccccc2C[C@H]1O)c1ccncc1
parameter: inhibition
displayUnit: %
readoutNumber: 21
--
givenSmiles: CC(C)(C)c1ccc(S(=O)(=O)NC[C@@H](O)C[C@@H](Cc2ccccc2)C(=O)N[C@H]2c3ccccc3C[C@H]2O)cc1
parameter: inhibition
displayUnit: %
readoutNumber: 72.1
--
givenSmiles: O=C(CCCCl)NC[C@@H](O)C[C@@H](Cc1ccccc1)C(=O)N[C@H]1c2ccccc2C[C@H]1O
parameter: inhibition
displayUnit: %
readoutNumber: 15.9
--
givenSmiles: CC(C)CNc1ccc(S(=O)(=O)NC[C@@H](O)C[C@@H](Cc2ccccc2)C(=O)N[C@H]2c3ccccc3C[C@H]2O)cc1
parameter: inhibition
displayUnit: %
readoutNumber: 27.4
--
givenSmiles: C#CCNC(=O)[C@@H](Cc1ccccc1)C[C@H](O)CNS(=O)(=O)c1ccc([N+](=O)[O-])cc1
parameter: inhibition
displayUnit: %
readoutNumber: 13.5
--
givenSmiles: CO[C@@H]1Cc2ccccc2[C@@H]1NC(=O)[C@H](Cc1ccccc1)C[C@H](O)CNS(=O)(=O)c1ccc([N+](=O)[O-])cc1
parameter: inhibition
displayUnit: %
readoutNumber: 5.9
--
givenSmiles: O=C(NC[C@@H](O)C[C@@H](Cc1ccccc1)C(=O)N[C@H]1c2ccccc2C[C@H]1O)c1cccc(CCl)c1
parameter: inhibition
displayUnit: %
readoutNumber: 15.1
--
givenSmiles: O=C(NC[C@@H](O)C[C@@H](Cc1ccccc1)C(=O)N[C@H]1c2ccccc2C[C@H]1O)C1CCCCCC1
parameter: inhibition
displayUnit: %
readoutNumber: 17
--
givenSmiles: O=C(NC[C@@H](O)C[C@@H](Cc1ccccc1)C(=O)N[C@H]1c2ccccc2C[C@H]1O)c1ccc2ccccc2c1
parameter: inhibition
displayUnit: %
readoutNumber: 23.5

Taken from ChEMBL document CHEMBL3879914.
